Cited source: patent US20050014811A1

Reported IC50 is given for each of the following compounds.
- study_system: CDK2/CyclinE (Homo sapiens, UniProt P24941)
- assay_explanation: CDK2/CyclinE Flashplate assay, 96-well format, biotinylated-Rb peptide substrate

compound: O=C(Nc1cccc(Cl)c1)Nc1nc2cc(OS(=O)(=O)c3ccc(NC4CCCC4)cc3)ccc2[nH]1
study_system: CDK2/CyclinE (Homo sapiens, UniProt P24941)
value_units: µM
IC50: 0.91

compound: COC(=O)Nc1nc2cc(OS(=O)(=O)c3ccsc3C(=O)OC)ccc2[nH]1
study_system: CDK2/CyclinE (Homo sapiens, UniProt P24941)
value_units: µM
IC50: 1.5

compound: CN1CCN(CCCNC(=O)Nc2nc3cc(OS(=O)(=O)c4ccc(NCC5CCCO5)cc4)ccc3[nH]2)CC1 (stereo not shown)
study_system: CDK2/CyclinE (Homo sapiens, UniProt P24941)
value_units: µM
IC50: 0.03

compound: O=C(NCCN1CCCC1)Nc1nc2cc(OS(=O)(=O)c3ccc(NCC4CCCO4)cc3)ccc2[nH]1 (stereo not shown)
study_system: CDK2/CyclinE (Homo sapiens, UniProt P24941)
value_units: µM
IC50: 0.2

* * *

Reported IC50 is given for each of the following compounds.
- study_system: CDK4/CyclinD1 (Homo sapiens, UniProt P11802)
- Sequence (P11802 whole entry, species assumed): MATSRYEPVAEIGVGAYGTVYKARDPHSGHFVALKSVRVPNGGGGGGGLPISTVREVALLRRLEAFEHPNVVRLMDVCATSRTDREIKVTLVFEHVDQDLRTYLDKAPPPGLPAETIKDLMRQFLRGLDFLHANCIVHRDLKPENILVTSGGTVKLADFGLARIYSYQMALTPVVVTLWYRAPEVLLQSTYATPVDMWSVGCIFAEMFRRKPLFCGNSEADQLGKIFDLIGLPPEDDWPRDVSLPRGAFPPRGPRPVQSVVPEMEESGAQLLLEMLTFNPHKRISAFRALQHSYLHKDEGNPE
- Sequence (P24385 whole entry partner, species assumed): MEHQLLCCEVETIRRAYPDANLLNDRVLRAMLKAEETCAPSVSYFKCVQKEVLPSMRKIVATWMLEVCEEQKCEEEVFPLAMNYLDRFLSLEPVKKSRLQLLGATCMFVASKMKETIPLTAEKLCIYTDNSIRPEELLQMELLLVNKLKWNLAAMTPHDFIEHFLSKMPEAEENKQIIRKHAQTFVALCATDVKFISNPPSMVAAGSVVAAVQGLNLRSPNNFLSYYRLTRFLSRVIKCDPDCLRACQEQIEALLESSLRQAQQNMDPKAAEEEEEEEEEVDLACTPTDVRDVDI
- assay_explanation: CDK4/CyclinD1 Flashplate assay, 96-well format, biotinylated-Rb peptide substrate

compound: COC(=O)Nc1nc2cc(OS(=O)(=O)c3ccc(NCCCCO)cc3)ccc2[nH]1
bound_type: =
IC50 (nM): 2000

compound: COC(=O)Nc1nc2cc(OS(=O)(=O)c3cccc([N+](=O)[O-])c3)ccc2[nH]1
bound_type: =
IC50 (nM): 2500

compound: CN1CCN(CCCNC(=O)Nc2nc3cc(OS(=O)(=O)c4ccc(NCC5CCCO5)cc4)ccc3[nH]2)CC1 (stereo not shown)
bound_type: =
IC50 (nM): 1200

compound: O=C(NCCS(=O)(=O)O)Nc1nc2cc(OS(=O)(=O)c3ccc(NCC4CCCO4)cc3)ccc2[nH]1 (stereo not shown)
bound_type: =
IC50 (nM): 130

compound: COC(=O)Nc1nc2cc(OS(=O)(=O)c3ccc(NCCc4ccccc4)cc3)ccc2[nH]1
bound_type: >
IC50 (nM): 3000

compound: CNc1ccc(S(=O)(=O)Oc2ccc3[nH]c(NC(=O)OC)nc3c2)cc1
bound_type: =
IC50 (nM): 300

compound: O=C(NCc1ccncc1)Nc1nc2cc(OS(=O)(=O)c3ccc(NC4CCCC4)cc3)ccc2[nH]1
bound_type: =
IC50 (nM): 1000

compound: COC(=O)CCCNC(=O)Nc1nc2cc(OS(=O)(=O)c3ccc(NC4CCCC4)cc3)ccc2[nH]1
bound_type: =
IC50 (nM): 240

compound: COC(=O)CCC(=O)Nc1nc2cc(OS(=O)(=O)c3ccc(-n4ccnc4)cc3)ccc2[nH]1
bound_type: =
IC50 (nM): 3100

compound: COc1ccc(NC(=O)Nc2nc3cc(OS(=O)(=O)c4ccc(NC5CCCC5)cc4)ccc3[nH]2)cc1
bound_type: =
IC50 (nM): 1620

* * *

- study_system: CDK4/CyclinD1 (Homo sapiens, UniProt P11802)
- assay_explanation: CDK4/CyclinD1 Flashplate assay, 96-well format, biotinylated-Rb peptide substrate
pIC50: −log10 of the molar value.

compound: COC(=O)CCCC(=O)Nc1nc2cc(OS(=O)(=O)c3ccc(NC4CCCC4)cc3)ccc2[nH]1 [Example 26]
study_system: CDK4/CyclinD1 (Homo sapiens, UniProt P11802)
pIC50: 6.17

compound: O=C(Nc1nc2cc(OS(=O)(=O)c3ccc(NC4CN5CCC4CC5)cc3)ccc2[nH]1)C1CC1 (stereo not shown) [Example 60-v]
study_system: CDK4/CyclinD1 (Homo sapiens, UniProt P11802)
pIC50: 5.38

compound: CN1CCN(CCCNc2ccc(S(=O)(=O)Oc3ccc4[nH]c(NC(=O)C5CC5)nc4c3)cc2)CC1 [Example 60-n]
study_system: CDK4/CyclinD1 (Homo sapiens, UniProt P11802)
pIC50: 5.70

compound: O=C(NCCOCCO)Nc1nc2cc(OS(=O)(=O)c3ccc(NC4CCCC4)cc3)ccc2[nH]1 [Example 58-af]
study_system: CDK4/CyclinD1 (Homo sapiens, UniProt P11802)
pIC50: 6.68

compound: O=S(=O)(Oc1ccc2[nH]c(Nc3ccccc3)nc2c1)c1ccc(NC2CCCC2)cc1 [Example 70-a]
study_system: CDK4/CyclinD1 (Homo sapiens, UniProt P11802)
pIC50: 5.93

compound: CN1CCN(CCCNC(=O)Nc2nc3cc(OS(=O)(=O)c4ccc(NC5CCCC5)cc4)ccc3[nH]2)CC1 [Example 58-k]
study_system: CDK4/CyclinD1 (Homo sapiens, UniProt P11802)
pIC50: 6.30

compound: O=C(NCCCCO)Nc1nc2cc(OS(=O)(=O)c3ccc(NC4CCCC4)cc3)ccc2[nH]1 [Example 58-ab]
study_system: CDK4/CyclinD1 (Homo sapiens, UniProt P11802)
pIC50: 6.66
